In this section, each of the compounds is paired with its reported pIC50.
# measurement-protocol: Displacement of [3H]DALKD from bradykinin receptor in rat brain membrane at pH 7.4 by competition assay
# Format: cell membranes
Non-standard residues stand in square brackets, D forms with d. Residues, ends and D or L forms follow the SMILES beside them. ξ: configuration not given here. ξNle = CCCCC(N)C(=O)O
The response must contain the number and no unit.

Below, each entry is followed by its recorded pIC50 result.
-- ask Could you please provide reported pIC50 for CCCCC(NC(=O)[C@H](CCCCN)NC(=O)[C@@H]1CCCN1)C(=O)N[C@@H](CCCCN)C(=O)O (some centres undefined) (H-PK[ξNle]K-OH) ? Thanks!
-- reply 7.15

-- ask Could you please provide reported pIC50 for CCCCC(N)C(=O)N[C@@H](CCCCN)C(=O)NC(CCCC)C(=O)N[C@@H](CCCCN)C(=O)O (some centres undefined) (H-[ξNle]K[ξNle]K-OH) ? Thanks!
-- reply 6.94

-- ask Could you please provide reported pIC50 for CC[C@H](C)[C@H](NC(=O)[C@H](CCCNC(=N)N)NC(=O)[C@H](CCCNC(=N)N)NC(=O)[C@H](CC(C)C)NC(=O)[C@H](Cc1ccccc1)NC(=O)CN)C(=O)O (H-GFLRRI-OH) ? Thanks!
-- reply 5.63

Attention now turns to another entry.
-- ask Could you please provide reported pIC50 for CC(C)C[C@H](NC(=O)[C@H](CCCCN)NC(=O)[C@@H](N)Cc1ccccc1)C(=O)N[C@@H](CCCCN)C(=O)O (H-FKLK-OH) ? Thanks!
-- reply 6.46
